Cited source: patent US8106197B2

Target: HGFR (Homo sapiens)
Construct: purchased Upstate 14-526
Test: HGFR continuous-coupled spectrophotometric assay
Assay type: biochemical
MEASURED_QUANTITY: % inhibition

Before answering, review these 5 worked examples.
{"INPUT_SMILES": "Nc1ncc(-c2ccc(C(=O)N3CCC(N4CCCC4)CC3)cc2)cc1OCc1ccccc1OC(F)F", "MEASURED_QUANTITY": "% inhibition", "RECORDED_MEASUREMENT": "% inhibition = 27"}
{"INPUT_SMILES": "Nc1ncc(-c2ccc(C(=O)N3CCC(N4CCCC4)CC3)cc2)cc1OCc1cccc(C(=O)NCc2ccncc2)c1", "MEASURED_QUANTITY": "% inhibition", "RECORDED_MEASUREMENT": "% inhibition = 10"}
{"INPUT_SMILES": "Cc1cc(COc2cc(-c3ccc(C(=O)N4CCC(N5CCCC5)CC4)cc3)cnc2N)ccc1F", "MEASURED_QUANTITY": "% inhibition", "RECORDED_MEASUREMENT": "% inhibition = 27"}
{"INPUT_SMILES": "Nc1ncc(-c2ccc(C(=O)N3CCC(N4CCCC4)CC3)cc2)cc1OCc1cccc(C(=O)NCc2cccnc2)c1", "MEASURED_QUANTITY": "% inhibition", "RECORDED_MEASUREMENT": "% inhibition = 14"}
{"INPUT_SMILES": "CS(=O)(=O)c1ccc(COc2cc(-c3ccc(C(=O)N4CCC(N5CCCC5)CC4)cc3)cnc2N)cc1", "MEASURED_QUANTITY": "% inhibition", "RECORDED_MEASUREMENT": "% inhibition = 11"}

Give its % inhibition value. Item: Nc1ncc(-c2ccc(C(=O)N3CCC(N4CCCC4)CC3)cc2)cc1OCc1ccc(Cl)s1
% inhibition = 19

Give its % inhibition value. Item: Nc1ncc(-c2ccc(C(=O)N3CCC(N4CCCC4)CC3)cc2)cc1OCc1ccc(S(=O)(=O)N2CCOCC2)cc1
% inhibition = 14

Give its % inhibition value. Item: Nc1ncc(-c2ccc(C(=O)N3CCC(N4CCCC4)CC3)cc2)cc1OCc1ccc(C(=O)c2ccccc2)cc1
% inhibition = 31

====

# key: entry, value: inhibition at 1 µM
Target: HGFR (Homo sapiens)
Construct: purchased Upstate 14-526
Experiment: HGFR continuous-coupled spectrophotometric assay
Format: biochemical
Conditions: Table 6; percent c-MET inhibition at 1 μM; read-out: % inhibition
Value and unit, in that order.

Before answering, review these 5 worked examples.
{"MOLECULE": "Nc1ncc(C(=O)NCc2noc(C(=O)N3CCC(CO)CC3)n2)cc1OCc1c(Cl)cccc1Cl", "RECORDED_MEASUREMENT": "26%"}
{"MOLECULE": "CC(O)CCNC(=O)c1cnc(N)c(OCc2c(Cl)cccc2Cl)c1 (centres unmarked)", "RECORDED_MEASUREMENT": "35%"}
{"MOLECULE": "Nc1ncc(C(=O)NCc2c(F)cccc2F)cc1OCc1c(Cl)cccc1Cl", "RECORDED_MEASUREMENT": "32%"}
{"MOLECULE": "Cc1ccc2c(c1)C(NC(=O)c1cnc(N)c(OCc3c(Cl)cccc3Cl)c1)CCO2 (centres unmarked)", "RECORDED_MEASUREMENT": "17%"}
{"MOLECULE": "COc1ccc(C(CCO)NC(=O)c2cnc(N)c(OCc3c(Cl)cccc3Cl)c2)cc1 (centres unmarked)", "RECORDED_MEASUREMENT": "22%"}

Give its inhibition at 1 µM value. Item: COc1cc(CCNC(=O)c2cnc(N)c(OCc3c(Cl)cccc3Cl)c2)cc(OC)c1O
25%

Give its inhibition at 1 µM value. Item: Nc1ncc(C(=O)N2CCNC(=O)CC2)cc1OCc1c(Cl)cccc1Cl
31%

====

Biological target: HGFR (Homo sapiens, UniProt P08581)
Construct: purchased Upstate 14-526
Sequence (P08581 974-1390 limits assumed): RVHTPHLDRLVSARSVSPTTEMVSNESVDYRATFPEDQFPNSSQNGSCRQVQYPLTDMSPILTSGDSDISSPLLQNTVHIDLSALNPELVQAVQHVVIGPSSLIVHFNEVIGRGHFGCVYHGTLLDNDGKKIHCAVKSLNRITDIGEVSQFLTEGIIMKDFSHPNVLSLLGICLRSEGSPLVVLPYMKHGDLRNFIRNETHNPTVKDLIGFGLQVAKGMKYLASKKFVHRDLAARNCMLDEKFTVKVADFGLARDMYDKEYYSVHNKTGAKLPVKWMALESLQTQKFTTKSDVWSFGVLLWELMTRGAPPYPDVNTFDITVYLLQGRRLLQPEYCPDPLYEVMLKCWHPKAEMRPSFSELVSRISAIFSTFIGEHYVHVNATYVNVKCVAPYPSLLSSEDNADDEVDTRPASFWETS
Assay: HGFR continuous-coupled spectrophotometric assay
Assay type: biochemical
Details: Table 3; Ki(μM) or I(%); test concentration not given
Label t when I(%) is strictly below 20%; at or above that, label f.

Sample answers from the record:
{"COMPOUND": "COC(=O)c1cccc(COc2cc(-c3ccc(C(=O)N4CCC(N5CCCC5)CC4)cc3)cnc2N)c1 [Example I-625]", "CAT": "t"}
{"COMPOUND": "CC(Oc1cc(-c2ccccc2C(F)(F)F)cnc1N)c1c(Cl)ccc(F)c1Cl (stereo not drawn) [Example I-559]", "CAT": "t"}
{"COMPOUND": "CC(Oc1cc(-c2ccc(C(=O)N3CCC(N4CCCC4)CC3)cc2)cnc1N)c1ccc(C(=O)NC2CCN(Cc3ccccc3)CC2)cc1 (stereo not drawn) [Example I-631]", "CAT": "t"}
{"COMPOUND": "C[C@@H]1CN(C(=O)c2ccc(-c3cnc(N)c(OCc4cccc(F)c4C(F)(F)F)c3)cc2)C[C@H](C)N1 [Example I-619]", "CAT": "t"}
{"COMPOUND": "Cc1ccccc1-c1cnc(N)c(OC(C)c2c(Cl)ccc(F)c2Cl)c1 (stereo not drawn) [Example I-565]", "CAT": "f"}

Record CC1CN(C(=O)c2ccc(-c3cnc(N)c(OCc4c(F)cccc4F)c3)cc2)CC(C)N1 (stereo not drawn) [Example I-620] : is its I(%) strictly below 20%?
t

Record Cc1ccccc1COc1cc(-c2ccc(C(=O)N3CCC(N4CCCC4)CC3)cc2)cnc1N [Example I-627] : is its I(%) strictly below 20%?
t

Record COc1cc(C(=O)N2C[C@@H](C)N[C@@H](C)C2)cc(OC)c1-c1cnc(N)c(OC(C)c2c(Cl)ccc(F)c2Cl)c1 (stereo partly drawn) [Example I-550] : is its I(%) strictly below 20%?
t

Record CC(Oc1cc(-c2ccccc2CO)cnc1N)c1c(Cl)ccc(F)c1Cl (stereo not drawn) [Example I-564] : is its I(%) strictly below 20%?
f

====

Target: HGFR (Homo sapiens)
Construct: purchased Upstate 14-526
Assay: HGFR continuous-coupled spectrophotometric assay
Format: biochemical
Details: Table 6; percent c-MET inhibition at 1 μM; read-out: % inhibition
Decide using inhibition at 1 µM: a value greater than or equal to 20% is yes, a smaller one is no.

Sample answers from the record:
{"COMPOUND": "CN1CCN(CCCNC(=O)c2cnc(N)c(OCc3c(Cl)cccc3Cl)c2)CC1", "ASSAY_TARGET": "HGFR (Homo sapiens)", "CAT": "yes"}
{"COMPOUND": "CN(C)C(=O)CN1CCN(C(=O)c2cnc(N)c(OCc3c(Cl)cccc3Cl)c2)CC1", "ASSAY_TARGET": "HGFR (Homo sapiens)", "CAT": "yes"}
{"COMPOUND": "Nc1ncc(C(=O)N2CCN(CCCN3CCOCC3)CC2)cc1OCc1c(Cl)cccc1Cl", "ASSAY_TARGET": "HGFR (Homo sapiens)", "CAT": "yes"}
{"COMPOUND": "Nc1ncc(C(=O)NCc2ccc[nH]c2=O)cc1OCc1c(Cl)cccc1Cl", "ASSAY_TARGET": "HGFR (Homo sapiens)", "CAT": "no"}
{"COMPOUND": "Nc1ncc(C(=O)N2CCCC(F)(F)C2)cc1OCc1c(Cl)cccc1Cl", "ASSAY_TARGET": "HGFR (Homo sapiens)", "CAT": "no"}

Check the entry COc1ccc(C(NC(=O)c2cnc(N)c(OCc3c(Cl)cccc3Cl)c2)C2CC2)cc1 (centres unmarked) : does inhibition at 1 µM equal or exceed 20%?
yes

Check the entry Nc1ncc(C(=O)NCCc2ccncc2)cc1OCc1c(Cl)cccc1Cl : does inhibition at 1 µM equal or exceed 20%?
yes

Check the entry Nc1ncc(C(=O)NC[C@]2(O)CC[C@H](c3ccccc3)CC2)cc1OCc1c(Cl)cccc1Cl : does inhibition at 1 µM equal or exceed 20%?
no

Check the entry Nc1ncc(C(=O)N2CCC(CCO)CC2)cc1OCc1c(Cl)cccc1Cl : does inhibition at 1 µM equal or exceed 20%?
yes

Check the entry Nc1ncc(C(=O)NC2COC3(CCN(c4ncccn4)CC3)C2)cc1OCc1c(Cl)cccc1Cl (centres unmarked) : does inhibition at 1 µM equal or exceed 20%?
yes

Check the entry Nc1ncc(C(=O)NCc2ccc(OC(F)F)cc2)cc1OCc1c(Cl)cccc1Cl : does inhibition at 1 µM equal or exceed 20%?
yes

====

Biological target: HGFR (Homo sapiens, UniProt P08581)
Construct: purchased Upstate 14-526
Assay: HGFR continuous-coupled spectrophotometric assay
Format: biochemical
Conditions: Table 6; percent c-MET inhibition at 1 μM; read-out: % inhibition
MEASURED_QUANTITY: inhibition at 1 µM (%)
Kindly answer with a numeric value in %, unit omitted.

Before answering, review these 2 worked examples.
{"COMPOUND": "Nc1ncc(C(=O)N2CCC3(CC2)CC(N2CCNC(=O)C2)CO3)cc1OCc1c(Cl)cccc1Cl (stereo not drawn)", "MEASURED_QUANTITY": "inhibition at 1 µM", "RECORDED_MEASUREMENT": 17}
{"COMPOUND": "Nc1ncc(C(=O)N2CCCN(Cc3ccc(F)cc3)CC2)cc1OCc1c(Cl)cccc1Cl", "MEASURED_QUANTITY": "inhibition at 1 µM", "RECORDED_MEASUREMENT": 26}

Query compound follows.
Give its inhibition at 1 µM value. Item: Nc1ncc(C(=O)N2CCC(Cc3cnccn3)CC2)cc1OCc1c(Cl)cccc1Cl
72
